Target: human heart chymase (Homo sapiens)
Sequence (P23946 22-247): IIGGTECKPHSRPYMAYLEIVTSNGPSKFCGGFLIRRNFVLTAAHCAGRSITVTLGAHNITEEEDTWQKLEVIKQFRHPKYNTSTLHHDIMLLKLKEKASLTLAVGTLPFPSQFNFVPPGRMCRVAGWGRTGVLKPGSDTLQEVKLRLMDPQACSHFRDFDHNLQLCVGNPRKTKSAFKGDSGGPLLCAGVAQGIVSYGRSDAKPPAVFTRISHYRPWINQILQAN
pKi: −log10 of the molar value.

{"compound": "Cc1cccc(-c2ncc(NC(=O)OCc3ccccc3)c(=O)n2CC(=O)NC(Cc2ccccc2)C(=O)C(F)(F)F)c1 (stereo not shown) [Example 7]", "pKi": 5.32}
